For each of the compounds below, state its pIC50.
- System: Endothelin-1 receptor (Rattus norvegicus)
- Sequence (P26684 whole entry): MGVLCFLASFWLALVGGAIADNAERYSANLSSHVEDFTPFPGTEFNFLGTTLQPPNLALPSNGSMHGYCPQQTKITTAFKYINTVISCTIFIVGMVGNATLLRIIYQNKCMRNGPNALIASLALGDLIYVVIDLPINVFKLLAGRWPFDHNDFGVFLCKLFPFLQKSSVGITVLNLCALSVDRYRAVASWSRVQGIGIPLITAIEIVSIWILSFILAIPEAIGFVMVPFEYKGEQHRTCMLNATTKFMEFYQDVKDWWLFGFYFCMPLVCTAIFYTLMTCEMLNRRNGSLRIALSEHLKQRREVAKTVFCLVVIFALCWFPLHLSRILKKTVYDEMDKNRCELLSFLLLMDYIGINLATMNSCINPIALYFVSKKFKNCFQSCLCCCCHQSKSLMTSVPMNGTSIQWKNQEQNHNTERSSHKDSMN
- Assay summary: Binding affinity for endothelin A receptor by inhibition of [125I]ET1 binding in rat aorta smooth muscle cells
Interpret pIC50 as the negative base-10 log of the concentration measured in mol/L.

Exam item: Request the reported pIC50 associated with CCCOc1ccc2c(c1)C(c1ccc3c(c1)OCO3)=C(C(=O)O)C(c1ccc3c(c1)OCO3)O2 (stereo not given)
Marked response: 7.37

Exam item: Request the reported pIC50 associated with Cc1ccc(C2=C(C(=O)O)C(c3ccc4c(c3)OCO4)Oc3ccccc32)cc1 (stereo not given)
Marked response: 6.28

Exam item: Request the reported pIC50 associated with O=C(O)C1=C(c2ccccc2)c2ccccc2OC1c1ccc2c(c1)OCO2 (stereo not given)
Marked response: 6.11

Exam item: Request the reported pIC50 associated with CCCCCCCOC1=C(C(=O)O)C(c2ccc3c(c2)OCO3)Oc2ccc(OC(C)C)cc21 (stereo not given)
Marked response: 8.33

Exam item: Request the reported pIC50 associated with CCOC1=C(C(=O)O)C(c2ccc3c(c2)OCO3)Oc2ccccc21 (stereo not given)
Marked response: 6.54

Exam item: Request the reported pIC50 associated with CCCC[C@@H]1c2cc(OC(C)C)ccc2O[C@H](c2ccc3c(c2)OCO3)[C@H]1C(=O)O
Marked response: 7.11

Exam item: Request the reported pIC50 associated with CCCCCCCCCCOC1=C(C(=O)O)C(c2ccc3c(c2)OCO3)Oc2ccc(OC(C)C)cc21 (stereo not given)
Marked response: 6.89

Exam item: Request the reported pIC50 associated with CC(C)Oc1ccc2c(c1)C=C(C(=O)O)C(c1ccc3c(c1)OCO3)O2 (stereo not given)
Marked response: 6.48

Exam item: Request the reported pIC50 associated with CCCOc1ccc2c(c1)C(c1ccc3c(c1)OCO3)=C(C(=O)O)C(c1ccc(OC)cc1)O2 (stereo not given)
Marked response: 6.66

Exam item: Request the reported pIC50 associated with CCCCOc1ccc2c(c1)C(c1ccc3c(c1)OCO3)=C(C(=O)O)C(c1ccccc1OC)O2 (stereo not given)
Marked response: 6.89

Exam item: Request the reported pIC50 associated with COc1ccc(CC2=C(C(=O)O)C(c3ccc4c(c3)OCO4)Oc3ccc(OC(C)C)cc32)cc1 (stereo not given)
Marked response: 9.49

Exam item: Request the reported pIC50 associated with CCCCOC1=C(C(=O)O)C(c2ccc3c(c2)OCO3)Oc2ccc(OCC)cc21 (stereo not given)
Marked response: 8.38

Exam item: Request the reported pIC50 associated with CCCCCOC1=C(C(=O)O)C(c2ccc3c(c2)OCO3)Oc2ccccc21 (stereo not given)
Marked response: 7.54

Exam item: Request the reported pIC50 associated with CCCCOC1=C(C(=O)O)C(c2ccc3c(c2)OCO3)Oc2ccccc21 (stereo not given)
Marked response: 7.18

Exam item: Request the reported pIC50 associated with CC(C)Oc1ccc2c(c1)C(OCCCC#N)=C(C(=O)O)C(c1ccc3c(c1)OCO3)O2 (stereo not given)
Marked response: 8.17

Exam item: Request the reported pIC50 associated with CC(C)Oc1ccc2c(c1)C=C(C(=O)O)[C@@H](c1ccc3c(c1)OCO3)O2
Marked response: 6.62

Exam item: Request the reported pIC50 associated with CCCCC1=C(c2nnn[nH]2)C(c2ccc3c(c2)OCO3)Oc2ccc(OC(C)C)cc21 (stereo not given)
Marked response: 7.74

Exam item: Request the reported pIC50 associated with CC(C)Oc1ccc2c(c1)C(Cl)=C(C(=O)O)C(c1ccc3c(c1)OCO3)O2 (stereo not given)
Marked response: 7.92

Exam item: Request the reported pIC50 associated with COC1=C(C(=O)O)[C@@H](c2ccc3c(c2)OCO3)Oc2ccc(OC(C)C)cc21
Marked response: 8.28

Exam item: Request the reported pIC50 associated with COc1ccc(C2=C(C(=O)O)C(c3ccc4c(c3)OCO4)Oc3ccc(OC(C)CO)cc32)cc1 (stereo not given)
Marked response: 8.55

Exam item: Request the reported pIC50 associated with COc1ccc(C2=C(C(=O)O)[C@@H](c3ccc4c(c3)OCO4)Oc3ccc(OC(C)C)cc32)cc1
Marked response: 9.72

Exam item: Request the reported pIC50 associated with COc1ccc(C2=C(C(=O)O)C(c3ccc4c(c3)OCO4)Oc3ccc(OC(C)C)cc32)cc1 (stereo not given)
Marked response: 9.29

Exam item: Request the reported pIC50 associated with CC(C)c1ccc(C2=C(C(=O)O)C(c3ccc4c(c3)OCO4)Oc3ccccc32)cc1 (stereo not given)
Marked response: 7.08

Exam item: Request the reported pIC50 associated with CCOC1=C(C(=O)O)C(c2ccc3c(c2)OCO3)Oc2ccc(OC(C)C)cc21 (stereo not given)
Marked response: 8.66

Exam item: Request the reported pIC50 associated with O=C(O)C1=Cc2ccccc2OC1c1ccc2c(c1)OCO2 (stereo not given)
Marked response: 4.17

Exam item: Request the reported pIC50 associated with CC(C)Oc1ccc2c(c1)C(c1ccccc1)=C(C(=O)O)C(c1ccc3c(c1)OCO3)O2 (stereo not given)
Marked response: 8.52

Exam item: Request the reported pIC50 associated with CCCCOc1ccc2c(c1)C(c1ccc3c(c1)OCO3)=C(C(=O)O)C(c1cc(OC)ccc1OC)O2 (stereo not given)
Marked response: 6.80

Exam item: Request the reported pIC50 associated with CCOc1ccc2c(c1)C(c1ccc(OC)cc1)=C(C(=O)O)C(c1ccc3c(c1)OCO3)O2 (stereo not given)
Marked response: 8.42

Exam item: Request the reported pIC50 associated with COc1ccc(C2=C(C(=O)O)C(c3ccc4c(c3)OCO4)Oc3ccc(OCc4ccccc4)cc32)cc1 (stereo not given)
Marked response: 7.21
